Data provenance is patent US4474783A.

experiment: acute toxicity, intravenous, male mice (LD50, Litchfield and Wilcoxon); conditions: mouse, in vivo, i.v., 10 animals per group, 7 days observation, 95% confidence limit in brackets
For each record, write down the corresponding log10(LD50 at 168 h).
Scale: decimal log of LD50 at 168 h, LD50 at 168 h in mg/kg.

Example entries and their recorded answers appear below.
molecule: COc1cc(C=CC(=O)N2CCN(CC3CC3)CC2)cc(OC)c1OC
propertyMeasured: log10(LD50 at 168 h)
result: 1.72
//
molecule: CC(=O)c1ccc(N2CCN(CC3CC3)CC2)cc1
propertyMeasured: log10(LD50 at 168 h)
result: 1.95
//
molecule: CC1CN(CC2CC2)CCN1Cc1csc2ccccc12 (stereo not shown)
propertyMeasured: log10(LD50 at 168 h)
result: 1.60
//
molecule: COc1cc(C(=O)N2CCN(CC3CC3)CC2C)cc(OC)c1OC(C)=O (stereo not shown)
propertyMeasured: log10(LD50 at 168 h)
result: 2.35

Batch of 7 molecules: report log10(LD50 at 168 h) for each.
1. CC1CN(CC2CC2)CCN1Cc1ccc2c(c1Cl)OCO2 (stereo not shown)
2. O=C(c1ccc2c(c1)OCO2)N1CCN(CC2CC2)CC1
3. CCCCCN1CCN(CC2CC2)CC1
4. CC1CN(CC2CC2)CCN1CCN1CCOCC1 (stereo not shown)
5. O=C(C=Cc1cccc(C(F)(F)F)c1)N1CCN(CC2CC2)CC1
6. CC(CN1CCN(CC2CC2)CC1)C(=O)NCc1ccccc1 (stereo not shown)
7. COc1ccc(OCC(=O)N2CCN(CC3CC3)CC2)cc1

-- reply
1.81
2.19
1.57
2.40
1.98
2.39
2.06

For each of the molecules below, note its log10(LD50 at 168 h).
1. CC1CN(CC2CC2)CCN1 (stereo not shown)
2. CC1CN(CC2CC2)CCN1CCN1CCCCC1 (stereo not shown)

-- reply
2.45
2.19

* * *

assay: acute toxicity, intravenous, male mice (LD50, Litchfield and Wilcoxon); conditions: mouse, in vivo, i.v., 10 animals per group, 7 days observation, 95% confidence limit in brackets
Provide the recorded LD50 at 168 h for the entries that follow.
One number for each entry, in mg/kg.

Worked examples, 8 compounds total:
compound: CC1CN(CC2CC2)CCN1CCCN1CCCCC1 (stereo not drawn)
LD50 at 168 h / mg/kg: 162
//
compound: CC(CN1CCN(CC2CC2)CC1)C(=O)O (stereo not drawn)
LD50 at 168 h / mg/kg: 190
//
compound: CCOC(=O)N1CCN(CC2CC2)CC1
LD50 at 168 h / mg/kg: 41
//
compound: C1CC1CN1CCN(CC2CC2)CC1
LD50 at 168 h / mg/kg: 110
//
compound: CC1CN(CC2CC2)CCN1CCCN1CCCCCC1 (stereo not drawn)
LD50 at 168 h / mg/kg: 130
//
compound: COc1cc(C(=O)N2CCN(CC3CC3)CC2)cc(OC)c1OC
LD50 at 168 h / mg/kg: 245
//
compound: COc1ccccc1N1CCN(CC2CC2)CC1
LD50 at 168 h / mg/kg: 34
//
compound: OCCN1CCN(CC2CC2)CC1
LD50 at 168 h / mg/kg: 460

-- ask Note down LD50 at 168 h recorded for `O=C(COc1ccc(F)cc1)N1CCN(CC2CC2)CC1`
-- reply 100
